The entries below pair compounds with pKd values for the protein given by its sequence, as found in several publications.
Target chain: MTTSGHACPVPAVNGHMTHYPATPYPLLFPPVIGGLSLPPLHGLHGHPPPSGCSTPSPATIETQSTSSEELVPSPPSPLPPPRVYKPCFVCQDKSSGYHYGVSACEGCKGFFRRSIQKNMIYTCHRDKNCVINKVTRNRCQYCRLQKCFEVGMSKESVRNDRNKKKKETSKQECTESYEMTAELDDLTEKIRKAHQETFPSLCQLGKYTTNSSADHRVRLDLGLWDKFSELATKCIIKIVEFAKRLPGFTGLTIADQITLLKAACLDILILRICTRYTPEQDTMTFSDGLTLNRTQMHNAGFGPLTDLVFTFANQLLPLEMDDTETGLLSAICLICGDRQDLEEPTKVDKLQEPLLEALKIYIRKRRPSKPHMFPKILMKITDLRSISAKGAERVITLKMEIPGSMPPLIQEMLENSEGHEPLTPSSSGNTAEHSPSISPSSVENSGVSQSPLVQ
Notebook: values listed as pKd are -log10 of the concentration (mol/L).

Data request, read-out pKd, for `Cc1cccc(C2=CCC(C)(C)c3ccc(C#Cc4ccc(C(=O)O)cc4)cc32)c1`
7.29

Data request, read-out pKd, for `CC(C)N1C(=O)CC(C)(C)c2ccc(C#Cc3ccc(C(=O)O)cc3)cc21`
7.74

Data request, read-out pKd, for `CC1(C)CCC(C)(C)c2cc(C(=O)Nc3cc(F)c(C(=O)O)c(F)c3)ccc21`
5.83

Data request, read-out pKd, for `CC1(C)CC=C(c2ccc(O)cc2)c2cc(C#Cc3ccc(C(=O)O)cc3)ccc21`
7.14

Data request, read-out pKd, for `CC1(C)CC=C(c2ccccc2)c2cc(C#Cc3ccc(C(=O)O)cc3)ccc21`
7.48

Data request, read-out pKd, for `CC(C)N1C(=O)CC(C)(C)c2cc(C#Cc3ccc(C(=O)O)cc3)ccc21`
7.77

Data request, read-out pKd, for `C=C(c1ccc(C(=O)O)cc1)c1ccc2c(c1)C(C)(C)CCC2(C)C`
6.04

Data request, read-out pKd, for `Cc1ccc(C2=CCC(C)(C)c3cc4ccc(-c5ccc(C(=O)O)cc5)cc4cc32)s1`
8.22

Data request, read-out pKd, for `CC1(C)CCC(C)(C)c2cc(C(=O)Nc3ccc(C(=O)O)c(F)c3)ccc21`
6.42

Data request, read-out pKd, for `CC1(C)C=C(/C=C/C#Cc2ccc(C(=O)O)cc2)C(c2ccc(C(C)(C)C)cc2)=CC1`
7.06

###

The entries below pair compounds with log10 of Kd values for Retinoic acid receptor beta (Homo sapiens), as found in several publications.
Would you kindly interpret these values as log10 of Kd expressed in nM?

{"smi": "CC1(C)CC=C(c2ccc(F)cc2)c2cc(C#Cc3ccc(C(=O)O)cc3)ccc21", "log10 of Kd": 1.72}
{"smi": "CC(C)N1CCC(C)(C)c2ccc(C#Cc3ccc(C(=O)O)cc3)cc21", "log10 of Kd": 1.26}

Data request, read-out log10 of Kd, for `CCc1ccc(C2=CCC(C)(C)c3ccc(C#Cc4ccc(C(=O)O)cc4)cc32)cc1`
1.00

Data request, read-out log10 of Kd, for `CC1=C(/C=C/C#Cc2ccc(C(=O)O)cc2)C(C)(C)CCC1`
1.30

Data request, read-out log10 of Kd, for `CC1(C)CCNc2ccc(C#Cc3ccc(C(=O)O)cc3)cc21`
2.85

Data request, read-out log10 of Kd, for `Cc1ccc(C2=CC(C)(C)Oc3cc4ccc(-c5ccc(C(=O)O)cc5)cc4cc32)cc1`
0.85

Data request, read-out log10 of Kd, for `CC1(C)CCNc2cc(C#Cc3ccc(C(=O)O)cc3)ccc21`
2.32

Data request, read-out log10 of Kd, for `CC1(C)CC=C(c2cccs2)c2cc(C#Cc3ccc(C(=O)O)cc3)ccc21`
1.30

Data request, read-out log10 of Kd, for `Cc1ccc(C2=CC(C)(C)Sc3cc4ccc(-c5ccc(C(=O)O)cc5)cc4cc32)s1`
1.11
